Exercise: for every item that follows, state its recorded cleaved RNA product abundance.
Tested on: Bacillus subtilis
ASSAY_PROCEDURE: cleaved RNA product abundance (RNA/gDNA barcode ratio) relative to median wild-type variant (ratio to wild type); higher = more accumulation of the downstream cleavage product
CONDITIONS: experiment (reporter, strain, medium): exp 4a: truncated aprE reporter, strain BJT201 with 2% xylose (RNase J1 expressed); cleavage site: cggR-gapA (positions -7 to +36 mutated)
One number for each entry.

Before answering, review these 4 worked examples.
>  <QUERY_SEQUENCE>
ACAGACGAAGGAGCCGCAAAGAAGTTATTAAAGGATGAATAATCCCTCGATATAAATATCTCTCACTTATTTAAA

>  <TESTED_ON>
Bacillus subtilis

>  <cleaved RNA product abundance>
0.0487

$$$$
>  <QUERY_SEQUENCE>
ACAGACGAAGGAGCCGCAAAGAATTTATTCAGGGATGAATAATCCCTCAATATAAATATCTCTCACTTATTTAAA

>  <TESTED_ON>
Bacillus subtilis

>  <cleaved RNA product abundance>
0.549

$$$$
>  <QUERY_SEQUENCE>
ACAGACGAAGGAGCCGCAAAGAAGTTATTAAGGAATGAATCATCCCTCAATATAAATATCTCTCACTTATTTAAA

>  <TESTED_ON>
Bacillus subtilis

>  <cleaved RNA product abundance>
0.151

$$$$
>  <QUERY_SEQUENCE>
ACAGACGAAGGAGCCGCAAACAAGTTATTAAGGAATGAATAATCCCTCAATATAAATATCTCTCACTTATTTAAA

>  <TESTED_ON>
Bacillus subtilis

>  <cleaved RNA product abundance>
0.123

$$$$

Return reported cleaved RNA product abundance values for all items listed beneath this line.
1. ACAGACGAAGGAGCCGCAAAGAAGTTATTAAGGGATGAATAATGCCCCAATATAAATATCTCTCACTTATTTAAA
2. ACAGACGAAGGAGCCGCAAAGTAGTTATTAAGGGATGAATAATACCTCAATATAAATATCTCTCACTTATTTAAA

1. 0.134
2. 0.176

Return reported cleaved RNA product abundance values for all items listed beneath this line.
1. ACAGACGAAGGAGCCGCAAAGAAGTTAATAAGGGATGAATAATCACTCAATATAAATATCTCTCACTTATTTAAA
2. ACAGACGAAGGAGCCGCAAAGAAGTTATCAATGGATGAATAATCCCTCAATATAAATATCTCTCACTTATTTAAA

1. 0.109
2. 0.146

###

Tested on: Bacillus subtilis
ASSAY_PROCEDURE: cleaved RNA product abundance (RNA/gDNA barcode ratio) relative to median wild-type variant (ratio to wild type); higher = more accumulation of the downstream cleavage product
CONDITIONS: experiment (reporter, strain, medium): exp 4a: truncated aprE reporter, strain BJT201 with 2% xylose (RNase J1 expressed); cleavage site: cggR-gapA (positions -7 to +36 mutated)
Everything with cleaved RNA product abundance lower than 0.3 is False; everything else, including exactly 0.3, is True.

>  <QUERY_SEQUENCE>
ACAGACGAAGGAGCCGCAAAGAAGTGATTACGGGATGAATAATCCCTCAATATAAATATCTCTCACTTATTTAAA

>  <TESTED_ON>
Bacillus subtilis

>  <CLASS_LABEL>
True

$$$$
>  <QUERY_SEQUENCE>
ACAGACGAAGGAGCCGCAAATAAGTTATTAAGGGATGAATAATCCCTCAATATAAATATCTCTCACTTATTTAAA

>  <TESTED_ON>
Bacillus subtilis

>  <CLASS_LABEL>
True

$$$$
>  <QUERY_SEQUENCE>
ACAGACGAAGGAGCCGCAAAGAATTTATTAAAGGATGAAAAATCCCTCAATATAAATATCTCTCACTTATTTAAA

>  <TESTED_ON>
Bacillus subtilis

>  <CLASS_LABEL>
False

$$$$

Below: the item to evaluate.
Please tell me: is the sequence ACAGACGAAGGAGCCGCAAAGAAGTTATTAAGTGATGAATAATCCCTCAATATAAAAATCTCTCACTTATTTAAA at or over 0.3 in terms of cleaved RNA product abundance? False
